Tested on: Klebsiella pneumoniae
Test: Antibacterial activity against Klebsiella pneumoniae ATCC 700603 assessed as inhibition of bacterial growth incubated for 24 hrs by agar diffusion method
Assay type: functional, organism-based
Active and inactive are the calls of the source. The rule behind the calls is not given here.
Measure: Activity

These recorded examples may help you get a feel for the data.
O=C(COc1ccc(-c2nc3cc(Cl)ccc3[nH]2)cc1)Nc1ccc(Cl)cc1 = Active
CN1CCN(c2ccc(-c3nc4ccccc4[nH]3)cc2)CC1 = Active
O=C(COc1ccc(-c2nc3cc(Cl)ccc3[nH]2)cc1)Nc1ccccc1[N+](=O)[O-] = Active
c1ccc2[nH]c(-c3ccc(-n4ccnc4)cc3)nc2c1 = Active
Cc1ccc(NC(=O)COc2ccc(-c3nc4cc(Cl)ccc4[nH]3)cc2)cc1 = Active
Cc1ccccc1NC(=O)COc1ccc(-c2nc3cc(Cl)ccc3[nH]2)cc1 = Active
O=C(COc1ccc(-c2nc3cc(Cl)ccc3[nH]2)cc1)Nc1ccc(F)cc1 = Active
O=C(COc1ccc(-c2nc3ccccc3[nH]2)cc1)Nc1ccc(Cl)cc1 = Active
c1ccc2[nH]c(-c3ccc(N4CCOCC4)cc3)nc2c1 = Active

Now for the molecule whose Activity we want.
Task: Check the records and state Activity for `O=C(COc1ccc(-c2nc3cc(Cl)ccc3[nH]2)cc1)Nc1ccc([N+](=O)[O-])cc1`
Output: Active
